- Measured On: Leucine aminopeptidase (Plasmodium falciparum (isolate 3D7)) (UniProt Q8IL11)
- Sequence (Q8IL11 whole entry, looked up): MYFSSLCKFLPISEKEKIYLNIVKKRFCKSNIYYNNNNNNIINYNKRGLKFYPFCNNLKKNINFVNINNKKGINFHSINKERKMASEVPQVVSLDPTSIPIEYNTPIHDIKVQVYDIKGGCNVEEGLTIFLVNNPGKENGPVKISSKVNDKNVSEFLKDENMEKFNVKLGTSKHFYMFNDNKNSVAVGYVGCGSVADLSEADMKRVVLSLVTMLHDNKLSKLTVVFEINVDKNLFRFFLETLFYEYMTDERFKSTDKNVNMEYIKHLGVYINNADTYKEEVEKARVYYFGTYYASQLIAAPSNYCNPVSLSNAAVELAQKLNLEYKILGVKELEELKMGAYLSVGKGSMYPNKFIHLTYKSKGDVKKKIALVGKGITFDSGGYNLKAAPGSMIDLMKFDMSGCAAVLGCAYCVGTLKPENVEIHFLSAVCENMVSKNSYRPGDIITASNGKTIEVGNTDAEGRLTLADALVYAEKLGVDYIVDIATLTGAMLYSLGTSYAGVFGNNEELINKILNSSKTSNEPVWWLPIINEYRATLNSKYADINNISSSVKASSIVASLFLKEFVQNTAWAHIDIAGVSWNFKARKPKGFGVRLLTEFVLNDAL
- Protocol Description: inhibition of purified malaria M17 aminopeptidase – biochemical, fluorescence, recombinant enzyme, powder samples, late-stage follow-up (AID 492977)
- Condition Info: recombinant PfM17LAP, H-Leu-NHMec fluorogenic substrate; at 5 µM; stronger effect = higher value
Assign inhibition to each entry below.
Numbers only here, please. The scale is %.

### Prompt Which inhibition value is on record for CC1=C(C)C[C@@H](C(=O)O)[C@@H](C(=O)Nc2cccc([N+](=O)[O-])c2)C1 ?
### Response 12

### Prompt Same for Cc1ccc(-c2cccc(NC(=O)[C@@H]3C4C=CC(C4)[C@@H]3C(=O)O)c2)o1 (some centres undefined)
### Response 9

### Prompt Same for N#Cc1c(NC(=O)[C@@H]2C3C=CC(C3)[C@@H]2C(=O)O)sc2c1CCCCC2 (some centres undefined)
### Response 25

### Prompt Same for Cn1c(SCC(=O)Nc2cccc3ccccc23)nc(O)cc1=O
### Response 12

* * *

Assign inhibition to each entry below.
- Measured On: Leucine aminopeptidase (Plasmodium falciparum (isolate 3D7)) (UniProt Q8IL11)
- Protocol Description: inhibition of purified malaria M17 aminopeptidase – biochemical, fluorescence, recombinant enzyme, powder samples, late-stage follow-up (AID 492977)
- Condition Info: recombinant PfM17LAP, H-Leu-NHMec fluorogenic substrate; at 5 µM; stronger effect = higher value
Numbers only here, please. The scale is %.

### Prompt Which inhibition value is on record for COC(=O)c1c(-c2ccco2)csc1NC(=O)[C@H]1CC=CC[C@H]1C(=O)O ?
### Response 50

### Prompt Same for COc1ccc(-c2cc(=O)[nH][nH]2)cc1
### Response 40

### Prompt Same for O=c1cc(-c2ccc(F)cc2)[nH][nH]1
### Response 49

* * *

- Measured On: Leucine aminopeptidase (Plasmodium falciparum (isolate 3D7)) (UniProt Q8IL11)
- Protocol Description: inhibition of purified malaria M17 aminopeptidase – biochemical, fluorescence, recombinant enzyme, powder samples, late-stage follow-up (AID 492977)
- Condition Info: recombinant PfM17LAP, H-Leu-NHMec fluorogenic substrate; at 5 µM; stronger effect = higher value
Measurement Kind: inhibition (%)
Numbers only here, please. The scale is %.

### Prompt Which inhibition value is on record for COc1cc(NC(=O)CSc2nc3cc(C)ccc3cc2C)c(C(=O)O)cc1OC ?
### Response 82

### Prompt Same for O=C(Nc1cc(Cl)ccc1Cl)[C@H]1CC=CC[C@H]1C(=O)O
### Response 14

### Prompt Same for COc1cc(NC(=O)CSc2nc3ccccc3cc2C)c(C(=O)O)cc1OC
### Response 86

### Prompt Same for COC(=O)c1c(NC(=O)[C@H]2CC=CC[C@H]2C(=O)O)sc(C)c1C
### Response 17
